# Tested Target: Ba/F3-FGFR3-transfected cells (Homo sapiens, UniProt P22607)
# Sequence (P22607 whole entry, change not shown): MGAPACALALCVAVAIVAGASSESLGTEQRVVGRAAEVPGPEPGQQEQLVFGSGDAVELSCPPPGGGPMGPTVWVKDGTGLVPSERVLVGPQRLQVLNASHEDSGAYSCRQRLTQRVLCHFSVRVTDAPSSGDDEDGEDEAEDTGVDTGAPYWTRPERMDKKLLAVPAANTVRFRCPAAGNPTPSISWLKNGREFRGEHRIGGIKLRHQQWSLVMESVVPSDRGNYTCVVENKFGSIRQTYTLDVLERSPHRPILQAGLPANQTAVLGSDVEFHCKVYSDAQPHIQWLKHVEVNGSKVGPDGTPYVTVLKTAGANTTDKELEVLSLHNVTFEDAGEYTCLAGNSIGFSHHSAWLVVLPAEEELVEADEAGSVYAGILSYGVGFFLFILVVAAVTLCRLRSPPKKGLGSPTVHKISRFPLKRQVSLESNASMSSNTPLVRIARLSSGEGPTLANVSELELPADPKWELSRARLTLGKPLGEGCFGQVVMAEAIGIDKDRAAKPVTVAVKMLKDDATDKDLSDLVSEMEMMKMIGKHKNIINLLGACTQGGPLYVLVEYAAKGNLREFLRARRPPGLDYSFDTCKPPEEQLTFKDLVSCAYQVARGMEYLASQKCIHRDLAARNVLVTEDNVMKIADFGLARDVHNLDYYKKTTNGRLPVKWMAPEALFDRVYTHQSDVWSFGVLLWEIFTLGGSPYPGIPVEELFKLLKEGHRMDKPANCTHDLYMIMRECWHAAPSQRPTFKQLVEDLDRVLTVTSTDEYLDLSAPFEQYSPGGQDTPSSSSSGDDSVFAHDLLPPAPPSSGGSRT
# Run Description: Ba/F3-FGFR3 (minus IL3) cellular proliferation assay, Alamar Blue
# Assay type: cell-based
# Condition Info: minus IL3, 384 well
Reported BAF3-FGFR 3 (MIN IL3) 384 well pIC50 values for a set of molecules
Observed Property: BAF3-FGFR 3 (MIN IL3) 384 well pIC50

- Molecule: "COc1cc(OC)cc(N(CCO)c2ccc3ncc(-c4cccnc4)nc3c2)c1"
  Censoring Qualifier: "="
  Measured Value: 6.59
- Molecule: "COc1cc(OC)cc(N(CCO)c2ccc3ncc(N4CCC(CN)CC4)nc3c2)c1"
  Censoring Qualifier: "<"
  Measured Value: 5
- Molecule: "COc1cc(OC)cc(N(CCCNCC(F)(F)F)c2ccc3ncc(-c4ccnc(C(=O)NCCCCCO)c4)nc3c2)c1"
  Censoring Qualifier: "="
  Measured Value: 5.11
- Molecule: "COc1cc(OC)cc(N(CCO)c2ccc3ncc(C4=CCN(C(=O)OC(C)(C)C)CC4)nc3c2)c1"
  Censoring Qualifier: "="
  Measured Value: 6.29
- Molecule: "COc1cc(OC)cc(N(CC2CC2)c2ccc3ncc(-n4cnc(C)c4)nc3c2)c1"
  Censoring Qualifier: "="
  Measured Value: 5.51
- Molecule: "COc1cc(OC)cc(N(CCCO)c2ccc3ncc(-c4ccnc(C(=O)NCCCCCN)c4)nc3c2)c1"
  Censoring Qualifier: "="
  Measured Value: 5.2
- Molecule: "COc1cc(OC)cc(N(CC2CC2)c2ccc3ncc(C#Cc4cncn4C)nc3c2)c1"
  Censoring Qualifier: "<"
  Measured Value: 5.52
- Molecule: "COC(=O)C1CCCN1c1cnc2ccc(N(CCO)c3cc(OC)cc(OC)c3)cc2n1 (stereo not drawn)"
  Censoring Qualifier: "="
  Measured Value: 5.36
- Molecule: "COCC(O)CN(c1cc(OC)cc(OC)c1)c1ccc2ncc(-c3cccnc3)nc2c1 (single isomer, unassigned) [Compound 47]"
  Censoring Qualifier: "="
  Measured Value: 6.3
- Molecule: "COc1cc(OC)cc(N(CCNC(C)C)c2ccc3ncc(-c4ccnn4C4CCCCO4)nc3c2)c1 (stereo not drawn)"
  Censoring Qualifier: "="
  Measured Value: 6.17
- Molecule: "COc1cc(OC)cc(N(CCCNCC(F)(F)F)c2ccc3ncc(-c4cnc(OC)nc4)nc3c2)c1"
  Censoring Qualifier: "<"
  Measured Value: 5
- Molecule: "COc1cc(OC)cc(N(CCCO)c2ccc3ncc(-c4ccnc(C(=O)N5CCOCC5)c4)nc3c2)c1"
  Censoring Qualifier: "="
  Measured Value: 6.25
- Molecule: "COc1cc(OC)cc(N(CCO)c2ccc3ncc(-c4ccnc(C(=O)NCCCCCN)c4)nc3c2)c1"
  Censoring Qualifier: "="
  Measured Value: 5.04
- Molecule: "COc1cc(OC)cc(N(CC2CC2)c2ccc3ncc(-c4ocnc4C)nc3c2)c1"
  Censoring Qualifier: "<"
  Measured Value: 5
- Molecule: "COc1cc(OC)cc(N(CC2CC2)c2ccc3ncc(Nc4nccs4)nc3c2)c1"
  Censoring Qualifier: "<"
  Measured Value: 5
- Molecule: "COc1cc(OC)cc(N(CCNC(C)C)c2ccc3ncc(-n4cnc(COC(C)=O)c4)nc3c2)c1"
  Censoring Qualifier: "="
  Measured Value: 7.09
- Molecule: "COc1cc(OC)cc(N(CC2CC2)c2ccc3ncc(-c4cccc(N5CCOCC5)c4)nc3c2)c1"
  Censoring Qualifier: "<"
  Measured Value: 5
- Molecule: "CCOC(=O)c1ncn(-c2cnc3ccc(N(CC4CC4)c4cc(OC)cc(OC)c4)cc3n2)c1C"
  Censoring Qualifier: "<"
  Measured Value: 5
- Molecule: "COc1cc(OC)cc(N(CCO)c2ccc3ncc(C(=O)Nc4cnn(C)c4)nc3c2)c1"
  Censoring Qualifier: "="
  Measured Value: 5.27
- Molecule: "COc1cc(OC)cc(N(CCO)c2ccc3ncc(-c4ccc(N5CCN(C(=O)OC(C)(C)C)CC5)cc4)nc3c2)c1"
  Censoring Qualifier: "="
  Measured Value: 5.79
- Molecule: "COc1cc(OC)cc(N(CCCNCC(=O)O)c2ccc3ncc(-c4ccnc(C(=O)NCCCCN)c4)nc3c2)c1"
  Censoring Qualifier: "<"
  Measured Value: 5
- Molecule: "COc1cc(OC)cc(N(CCCO)c2ccc3ncc(-c4ccnc(C(=O)NCCOCCO)c4)nc3c2)c1"
  Censoring Qualifier: "="
  Measured Value: 5.8
- Molecule: "COc1cc(OC)cc(N(CCNC(C)C)c2ccc3ncc(NCC4CCNCC4)nc3c2)c1"
  Censoring Qualifier: "="
  Measured Value: 5.38
- Molecule: "CNc1ccc(-c2cnc3ccc(N(CCCO)c4cc(OC)cc(OC)c4)cc3n2)cn1"
  Censoring Qualifier: "="
  Measured Value: 6.59

* * *

# Tested Target: Ba/F3-FGFR1-transfected cells (Homo sapiens, UniProt P11362)
# Sequence (P11362 whole entry, change not shown): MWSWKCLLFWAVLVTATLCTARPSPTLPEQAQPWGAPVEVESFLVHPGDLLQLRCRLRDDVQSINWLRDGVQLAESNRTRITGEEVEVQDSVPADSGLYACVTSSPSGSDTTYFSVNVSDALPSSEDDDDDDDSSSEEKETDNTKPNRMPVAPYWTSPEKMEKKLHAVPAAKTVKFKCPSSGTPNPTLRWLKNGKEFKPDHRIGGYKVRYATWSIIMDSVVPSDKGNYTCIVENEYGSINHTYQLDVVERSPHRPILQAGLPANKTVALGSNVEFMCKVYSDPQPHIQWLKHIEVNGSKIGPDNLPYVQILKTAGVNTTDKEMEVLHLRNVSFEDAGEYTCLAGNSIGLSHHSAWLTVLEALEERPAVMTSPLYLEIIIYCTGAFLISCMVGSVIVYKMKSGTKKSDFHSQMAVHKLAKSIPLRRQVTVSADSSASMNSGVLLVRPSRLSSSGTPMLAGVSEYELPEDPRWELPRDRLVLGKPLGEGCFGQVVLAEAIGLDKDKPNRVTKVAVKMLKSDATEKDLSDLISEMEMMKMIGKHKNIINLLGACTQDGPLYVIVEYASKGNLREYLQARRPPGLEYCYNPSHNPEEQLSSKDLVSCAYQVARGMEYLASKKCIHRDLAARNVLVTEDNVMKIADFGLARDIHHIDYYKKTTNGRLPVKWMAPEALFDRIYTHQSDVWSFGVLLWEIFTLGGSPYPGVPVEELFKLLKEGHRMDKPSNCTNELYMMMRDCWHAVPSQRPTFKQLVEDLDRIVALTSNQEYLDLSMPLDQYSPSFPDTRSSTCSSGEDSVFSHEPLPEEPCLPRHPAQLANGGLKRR
# Run Description: Ba/F3-FGFR1 (minus IL3) cellular proliferation assay, Alamar Blue
# Format: cell-based
# Condition Info: minus IL3, 96 well
Observed Property: BAF3-FGFR 1 (MIN IL3) 96 well pIC50

- Molecule: "COc1cc(OC)cc(N(CC2CC2)c2ccc3ncc(-c4cnco4)nc3c2)c1 [Compound 55]"
  Observed Property: "BAF3-FGFR 1 (MIN IL3) 96 well pIC50"
  Censoring Qualifier: "="
  Measured Value: 5.37
- Molecule: "COc1cc(OC)cc(N(CC2CC2)c2ccc3ncc(Nc4nncs4)nc3c2)c1 [Compound 102]"
  Observed Property: "BAF3-FGFR 1 (MIN IL3) 96 well pIC50"
  Censoring Qualifier: "<"
  Measured Value: 5
- Molecule: "CCOC(=O)c1ncn(-c2cnc3ccc(N(CC4CC4)c4cc(OC)cc(OC)c4)cc3n2)c1C [Compound 65]"
  Observed Property: "BAF3-FGFR 1 (MIN IL3) 96 well pIC50"
  Censoring Qualifier: "<"
  Measured Value: 5
- Molecule: "COc1cc(OC)cc(N(CC2CC2)c2ccc3ncc(-n4cncn4)nc3c2)c1 [Compound 50]"
  Observed Property: "BAF3-FGFR 1 (MIN IL3) 96 well pIC50"
  Censoring Qualifier: "<"
  Measured Value: 5
- Molecule: "COc1cc(OC)cc(N(CC2CC2)c2ccc3ncc(-c4ccnc(N5CCOCC5)c4)nc3c2)c1 [Compound 90]"
  Observed Property: "BAF3-FGFR 1 (MIN IL3) 96 well pIC50"
  Censoring Qualifier: "="
  Measured Value: 5.06
- Molecule: "COc1cc(OC)cc(N(CC2CC2)c2ccc3ncc(-n4ccc(C)n4)nc3c2)c1 [Compound 31]"
  Observed Property: "BAF3-FGFR 1 (MIN IL3) 96 well pIC50"
  Censoring Qualifier: "<"
  Measured Value: 5
- Molecule: "COc1cc(OC)cc(N(CC2CC2)c2ccc3ncc(-n4cnc(C)c4)nc3c2)c1 [Compound 30]"
  Observed Property: "BAF3-FGFR 1 (MIN IL3) 96 well pIC50"
  Censoring Qualifier: "="
  Measured Value: 5.03
- Molecule: "COc1cc(OC)cc(N(CC2CC2)c2ccc3ncc(C(=O)Nc4cncn4C)nc3c2)c1 [Compound 27]"
  Observed Property: "BAF3-FGFR 1 (MIN IL3) 96 well pIC50"
  Censoring Qualifier: "<"
  Measured Value: 5
- Molecule: "COc1cc(OC)cc(N(CC2CC2)c2ccc3ncc(-c4nccn4C)nc3c2)c1 [Compound 60]"
  Observed Property: "BAF3-FGFR 1 (MIN IL3) 96 well pIC50"
  Censoring Qualifier: "<"
  Measured Value: 5
- Molecule: "COc1cc(OC)cc(N(CC2CC2)c2ccc3ncc(-c4nnn[nH]4)nc3c2)c1 [Compound 41]"
  Observed Property: "BAF3-FGFR 1 (MIN IL3) 96 well pIC50"
  Censoring Qualifier: "<"
  Measured Value: 5
- Molecule: "COc1cc(OC)cc(N(CC2CC2)c2ccc3ncc(-c4cn(CCN5CCOCC5)nn4)nc3c2)c1 [Compound 24]"
  Observed Property: "BAF3-FGFR 1 (MIN IL3) 96 well pIC50"
  Censoring Qualifier: "="
  Measured Value: 5.42
- Molecule: "COc1cc(OC)cc(N(CC2CC2)c2ccc3ncc(-n4ccnc4C)nc3c2)c1 [Compound 32]"
  Observed Property: "BAF3-FGFR 1 (MIN IL3) 96 well pIC50"
  Censoring Qualifier: "<"
  Measured Value: 5
- Molecule: "COc1cc(OC)cc(N(CC2CC2)c2ccc3ncc(-c4ccnc(N5CCN(C)CC5)c4)nc3c2)c1 [Compound 37]"
  Observed Property: "BAF3-FGFR 1 (MIN IL3) 96 well pIC50"
  Censoring Qualifier: "="
  Measured Value: 5.4
- Molecule: "COc1cc(OC)cc(N(CC2CC2)c2ccc3ncc(C(=O)N4CCC4)nc3c2)c1 [Compound 93]"
  Observed Property: "BAF3-FGFR 1 (MIN IL3) 96 well pIC50"
  Censoring Qualifier: "<"
  Measured Value: 5
- Molecule: "COc1cc(OC)cc(N(CC2CC2)c2ccc3ncc(-c4cn(CCO)nn4)nc3c2)c1 [Compound 40]"
  Observed Property: "BAF3-FGFR 1 (MIN IL3) 96 well pIC50"
  Censoring Qualifier: "="
  Measured Value: 5.4
- Molecule: "COc1cc(OC)cc(N(CC2CC2)c2ccc3ncc(C#Cc4ccncc4)nc3c2)c1 [Compound 23]"
  Observed Property: "BAF3-FGFR 1 (MIN IL3) 96 well pIC50"
  Censoring Qualifier: "="
  Measured Value: 5.41
- Molecule: "COc1cc(OC)cc(N(CC2CC2)c2ccc3ncc(-n4nccc4C)nc3c2)c1 [Compound 62]"
  Observed Property: "BAF3-FGFR 1 (MIN IL3) 96 well pIC50"
  Censoring Qualifier: "<"
  Measured Value: 5
